src = ChEMBL document CHEMBL4376884

assay: Metal chelating activity assessed as Zn2+-compound complex formation by measuring stability constant for ZnL(OH)2 in 0.15M NaCl at 298.1K by potentiometric titration analysis
Property Label: log K

c1ccc2cc(CN(CCNCc3ccncc3)CCNCc3ccncc3)ccc2c1 -12.9
c1cncc(CNCCN(CCNCc2cccnc2)Cc2ccc3ccccc3c2)c1 -12.1
CN(C)c1cccc2c(S(=O)(=O)N(CCNCc3ccccn3)CCNCc3ccccn3)cccc12 -11.5
O=S(=O)(c1cccc2ccccc12)N(CCNCc1ccccn1)CCNCc1ccccn1 -11.8

---

experiment: Metal chelating activity assessed as Zn2+-compound complex formation by measuring stability constant for ZnL(OH) in 0.15M NaCl at 298.1K by potentiometric titration analysis
Property Label: log K

Worked cases, log K given:
c1cncc(CNCCN(CCNCc2cccnc2)Cc2ccc3ccccc3c2)c1 -2.56
CN(C)c1cccc2c(S(=O)(=O)N(CCNCc3ccccn3)CCNCc3ccccn3)cccc12 -1.17

A. c1ccc(CNCCN(CCNCc2ccccn2)Cc2ccc3ccccc3c2)nc1
B. O=S(=O)(c1cccc2ccccc12)N(CCNCc1ccccn1)CCNCc1ccccn1
Hi, I'm comparing A with B and wondering which one has the bigger number for log K. Any idea? Your choice should be expressed through its label.
A
